Biological target: CRAC channel (endogenous SOC in HEK293 cells) (Homo sapiens, UniProt Q96D31)
Construct: endogenous in cells; host or cells: HEK293 (ECACC)
Sequence (Q96D31 whole entry): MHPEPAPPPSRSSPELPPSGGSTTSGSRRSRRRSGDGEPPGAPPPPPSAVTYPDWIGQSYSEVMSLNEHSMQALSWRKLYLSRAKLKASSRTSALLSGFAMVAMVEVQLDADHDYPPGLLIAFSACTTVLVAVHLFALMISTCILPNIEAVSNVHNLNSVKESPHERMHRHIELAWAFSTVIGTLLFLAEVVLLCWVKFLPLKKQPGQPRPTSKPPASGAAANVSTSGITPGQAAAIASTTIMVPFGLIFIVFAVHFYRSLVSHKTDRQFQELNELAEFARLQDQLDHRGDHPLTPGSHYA
Assay: HEK Calcium Influx Assay (FLIPR)
Type: cell-based
Settings: numeric values of Table 2, read-out: inhib. [@ 10 μM] FLIPR
assayReadout: inhibition at 10 µM
The answer should read as a number with its unit following.

Some molecules with known inhibition at 10 µM results, for comparison:
1. Cc1cc(C2CC2)ncc1-c1cc(C(=O)Nc2c(F)cccc2F)nn1C 81%
2. Cc1cc(COc2cc(C)c(-c3cc(C(=O)Nc4c(F)cccc4F)nn3C)cn2)no1 113%
3. Cc1cc(C(F)(F)F)ncc1-c1cc(C(=O)Nc2c(F)cccc2F)nn1C 100%

inhibition at 10 µM for COCCOc1cc(C)c(-c2cc(C(=O)Nc3c(F)cccc3F)nn2C)cn1 ?
87%

I am curious: what inhibition at 10 µM value has been reported for CCc1cc(C)c(-c2cc(C(=O)Nc3c(F)cccc3F)nn2C)cn1 ?
67%

Look at this molecule and give its reported inhibition at 10 µM. Cc1cc(N(C)C)ncc1-c1cc(C(=O)Nc2c(F)cccc2F)nn1C
98%

inhibition at 10 µM lookup needed for Cc1cc(OC2COC2)ncc1-c1cc(C(=O)Nc2c(F)cccc2F)nn1C , thanks.
94%

If you can, please state the reported inhibition at 10 µM value of Cc1cc(OC2CC2)ncc1-c1cc(C(=O)Nc2c(F)cncc2F)nn1C .
76%

---

Listed compounds paired with reported solubility at 2 min
Assay: Nephelometric Solubility Measurement
Format: physicochemical
Details: aqueous buffer, kinetic from dmso stock; phosphate buffered saline pH 7.4, 37° C., incubation 2 minutes
Give the value in µM but do not write µM after it.

Observe how each entry below is paired with its result.
compound	numericResult
COc1cc(OC)c(-c2ccc(NC(=O)c3c(F)cccc3F)cc2)cn1 [Comparative example #4, reference compound]	38.8
CCOc1cc(C)c(-c2cc(C(=O)Nc3c(F)cccc3F)nn2C)cn1	149

We next turn to a different compound, shown below.
Record request: solubility at 2 min value, item COc1ncc(-c2nn(C)c(=O)o2)cc1-c1cc(C(=O)Nc2c(F)cccc2F)nn1C
131

---

Target: CRAC channel (endogenous SOC in HEK293 cells) (Homo sapiens)
Construct: endogenous in cells; host or cells: HEK293 (ECACC)
Assay: HEK Calcium Influx Assay (FLIPR)
Type: cell-based
Conditions: numeric values of Table 2, read-out: inhib. [@ 10 μM] FLIPR
assayReadout: inhibition at 10 µM (%)
Dear colleague, please return just the value in %, with no unit written.

1) Cc1cc(OC2CC2)ncc1-c1cc(C(=O)Nc2c(F)cccc2F)nn1C 83
2) CCc1cc(C)c(-c2cc(C(=O)Nc3c(F)cncc3F)nn2C)cn1 61
3) Cc1cc(OC(C)C)ncc1-c1cc(C(=O)Nc2c(F)cccc2F)nn1C 100
4) Cc1cc(OC(F)(F)F)ncc1-c1cc(C(=O)Nc2c(F)cccc2F)nn1C 92
5) Cc1cc(OC(F)(F)F)ncc1-c1cc(C(=O)Nc2c(F)cncc2F)nn1C 94

// switching to the query compound
Look up inhibition at 10 µM for this compound: CCOc1cc(C)c(-c2cc(C(=O)Nc3c(F)cccc3F)nn2C)cn1
75
